These entries and their values trace back to paper PMC9838217.

# Target under test: SALL4 ZFC4 R900W (HT-SELEX) (Mus musculus, UniProt Q8BX22 870-940, R900W)
# Sequence: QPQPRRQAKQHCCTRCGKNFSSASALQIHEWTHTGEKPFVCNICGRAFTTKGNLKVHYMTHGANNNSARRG
# Assay details: HT-SELEX; high values mean tight binding
# Condition notes: protein: recombinant; vector His6-GST; dsDNA, one strand shown
binding signal values by entry
Result type: binding signal (fold-change vs cycle 0)

CAGTCA: 0.925
CCATGG: 0.524
TATATA: 2.55
CTGCCC: 0.166
GCTACA: 0.67
CGGCAG: 0.106
CGACGA: 0.288
AGGCGC: 0.0722
AATTCG: 1.01
GTGAAA: 1.27
ATATTG: 1.8
CACAAC: 0.72
AACGAG: 0.894
CGATAA: 1.19
AGCCAG: 0.361
ATTACA: 2.06
CTTTAA: 1.95
ACGGAC: 0.425
GGCCAC: 0.126
AGGCAA: 0.657
ACGGCA: 0.221
CAGTCG: 0.389
GGAATA: 1.41

---

# Target under test: SALL4 ZFC4 R900W (HT-SELEX) (Mus musculus, UniProt Q8BX22 870-940, R900W)
# Sequence: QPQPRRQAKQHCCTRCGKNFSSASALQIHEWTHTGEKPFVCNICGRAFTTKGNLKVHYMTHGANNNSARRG
# Assay details: HT-SELEX; high values mean tight binding
# Condition notes: protein: recombinant; vector His6-GST; dsDNA, one strand shown
Result type: log10 binding signal (log10 of the value in fold-change vs cycle 0)

ATTAAG: 0.32
ACTCAA: 0.15
CGGCTA: -0.61
AATAGC: 0.03
AAACGG: -0.19
CCTCTC: -0.23
CCCCGA: -0.61
CACTGC: -0.41
AAACTC: 0.11
GTACGA: -0.10
CATGTA: 0.14
AGGCTC: -0.40
CGTCTA: -0.15
CGGGAC: -0.69
GAGAGC: -0.37
AAAGGC: -0.24
GCTAAC: -0.10
CATCAG: -0.01
AAACCA: 0.09
AAATTA: 0.39
CCGCCG: -1.46
CCCGGA: -0.64
AGTCGA: -0.16

---

# Target under test: SALL4 ZFC4 WT (HT-SELEX) (Mus musculus, UniProt Q8BX22 870-940)
# Sequence: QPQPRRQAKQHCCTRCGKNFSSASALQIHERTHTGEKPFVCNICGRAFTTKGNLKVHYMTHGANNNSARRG
# Assay details: HT-SELEX; high values mean tight binding
# Condition notes: protein: recombinant; vector His6-GST; dsDNA, one strand shown
Simple rule here: binding signal less than 0.6 fold-change vs cycle 0 is t, otherwise f.

AACAAG: f
GAGTGA: f
CCACTC: t
GCTTAA: f
CCTGAG: t
CCTTAC: f
CCAGTA: f
AAAATA: f
ATGTCG: t
GGTCCA: t
AATATA: f
CCAATC: f
AACGTT: f
ATTACC: f
ACAGGG: t
ACAGGT: f
CTCATA: f
ATTCCC: f
CACCCA: t
AGAGTG: f
CTGCTC: t
GAGTTA: f

---

// reported log10 of binding signal per item
# Target under test: SALL4 ZFC4 G921D (HT-SELEX) (Mus musculus, UniProt Q8BX22 870-940, G921D)
# Sequence: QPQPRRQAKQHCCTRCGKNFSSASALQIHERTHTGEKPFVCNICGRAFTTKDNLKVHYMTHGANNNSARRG
# Assay details: HT-SELEX; high values mean tight binding
# Condition notes: protein: recombinant; vector His6-GST; dsDNA, one strand shown
Result type: log10 of binding signal (log10 of the value in fold-change vs cycle 0)

CACTGG: -0.21
GGTTAC: 0.00
GCCATA: -0.17
GCATGC: -0.36
CGAAAA: -0.04
AGTAAG: 0.18
AAATCT: 0.24
AGGATG: 0.02
GCAAGA: -0.08
ACACAG: -0.06
CTCACA: -0.02
CCCAGA: -0.23
CCACGG: -0.48
TAACAA: 0.26
AGATCA: 0.16
GACGGA: -0.26
GTTGCA: -0.12
AAGATT: 0.27
CATAAC: 0.14
CGAAAC: -0.13
CTTTGC: -0.13
CAAGAC: -0.04
CCCCGC: -0.75

---

As shown below, each of these sequences has a reported log10(binding signal) value.
# Target under test: SALL4 ZFC4 WT (HT-SELEX) (Mus musculus, UniProt Q8BX22 870-940)
# Sequence: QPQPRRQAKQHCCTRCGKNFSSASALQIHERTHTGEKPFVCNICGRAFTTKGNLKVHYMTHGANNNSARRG
# Assay details: HT-SELEX; high values mean tight binding
# Condition notes: protein: recombinant; vector His6-GST; dsDNA, one strand shown
Result type: log10(binding signal) (log10 of the value in fold-change vs cycle 0)

ATTCAA: 0.29
ATGCAT: 0.12
GATATA: 0.40
AACAAC: 0.07
AGTAAG: 0.20
ACCTAC: -0.10
ATTGTC: 0.06
ACTTGC: -0.18
AAAACA: 0.21
CGAGAC: -0.44
CTCATC: -0.05
CAATGG: -0.12
AAATGT: 0.23
CGTACC: -0.39
GTCCTA: -0.12
ACTTCG: -0.17
TAGCAA: 0.06
AGTGAA: 0.13
GCAACC: -0.49
AACCCC: -0.34
TAATAA: 0.70
ACAACT: 0.10
CAGGAG: -0.32

---

# Target under test: SALL4 ZFC4 G921D (HT-SELEX) (Mus musculus, UniProt Q8BX22 870-940, G921D)
# Sequence: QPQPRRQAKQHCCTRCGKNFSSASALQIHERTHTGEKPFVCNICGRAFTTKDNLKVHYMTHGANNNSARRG
# Assay details: HT-SELEX; high values mean tight binding
# Condition notes: protein: recombinant; vector His6-GST; dsDNA, one strand shown
Result type: binding signal (fold-change vs cycle 0)

TCTGCA: 0.747
ATTCGA: 1.2
CACCTC: 0.689
AAGAAA: 1.78
GACAGC: 0.491
CGAAGC: 0.474
AAGCGA: 0.734
ACCTAG: 1.04
ATTGGG: 0.856
TCCCGA: 0.562
ATGGTG: 0.941
ACGGAG: 0.609
ACCGGC: 0.227
ACTCTG: 0.937
CAAATC: 1.21
CCACCA: 0.582
ATGTTC: 1.36
GTATAA: 1.74
ATAAGC: 1.22
GTAGAA: 1.27
CCCCGG: 0.224
GTGAAC: 1.01
GGAAGA: 1.12
CCCTAC: 0.603
CTCAAA: 1.2
CCTGAA: 0.951
CTACAA: 1.24
AATGGC: 0.662
CAGTAA: 1.37
CATCGA: 0.854
AACTCG: 0.871
ACTCCA: 1.03
GAACCC: 0.668
ACGTGG: 0.54
CAGGCA: 0.477
ACCTCG: 0.604
TAGGGA: 1.02
GCCTAC: 0.499
CATAAA: 1.6
CCCACA: 0.523
GAGCAA: 0.797
CGGTGA: 0.548
AACGTC: 0.813
ATTATC: 1.85
AATGGA: 1.39
AGGCAA: 0.754
AGGCCT: 0.516
AATTGT: 1.66
CTTCCA: 1.02
GGTATA: 1.3
GAACAC: 0.932
ATGACG: 0.852
CATTAG: 1.39
AAGTAC: 1.31
AATGCA: 1.15
AATAGC: 1.11
TACCGA: 0.837
ATTCTG: 1.28
ACACGG: 0.548
ATATAT: 2.2
CACCCG: 0.342
ACATAG: 1.34
CATGGC: 0.495
GCGTCC: 0.258
CCGAAA: 0.66
GGGATA: 0.94
CGCTCA: 0.445
CCCGCG: 0.134
CGCTTA: 0.684
CGCTTC: 0.452
TATCGA: 1.22
GTATGA: 1.38
AGAACT: 1.43
GCGGCC: 0.107
CGTTCA: 0.871
CCCTGC: 0.323
CTGAAG: 1.03
TGCCCA: 0.437
TGAGAA: 1.38
ACGCGT: 0.366
TCTGAA: 1.37
AGTTAA: 1.84
CTTTAC: 1.36
GAAGAA: 1.41
TATGGA: 1.37
GAGATC: 1.06
TCGTCA: 0.852
TCAGGA: 1.03
ACACAA: 1.19
CCTGAG: 0.691
CTGGGA: 0.594
AAATTA: 2.13
CGCCTC: 0.277
CCTCTA: 0.953
ACATCG: 0.829
CGGTCA: 0.52
ATGAAT: 1.92
